System: NCI-H292 lung cancer cells
ASSAY SUMMARY: FDA drug screening, complete media vs cholesterol-free media without statin (TABLE 1)
Format: cell-based, human
CONDITION CONTEXT: NCI-H292 cells, FDA drug library screen, cholesterol-free media without statin
Where a name gives a salt, the structure may show the parent alone.
Quick reference: Cholesterol-free of the listed items.

Worked examples, 2 compounds total:
Lookup: Cholesterol-free for C=C[C@]1(C)C[C@@H](OC(=O)CS[C@@H]2C[C@H]3CC[C@@H](C2)N3C)[C@]2(C)[C@H](C)CC[C@]3(CCC(=O)[C@H]32)[C@@H](C)[C@@H]1O ?
Found: 1.002

Lookup: Cholesterol-free for OCC(S)CS (stereo not drawn) ?
Found: 0.9919

Consider the additional compound presented here.
Lookup: Cholesterol-free for C=CCN1CCc2nc(N)sc2CC1 [Talipexole dihydrochloride] ?
Found: 1.016

----------
Quick reference: Complete Media of the listed items.
System: NCI-H292 lung cancer cells
ASSAY SUMMARY: FDA drug screening, complete media vs cholesterol-free media with simvastatin (TABLE 2)
Assay type: cell-based, human
CONDITION CONTEXT: NCI-H292 cells, complete media; FDA drug library screen (TABLE 2)
Where a name gives a salt, the structure may show the parent alone.

Lookup: Complete Media for CC(=O)O[C@H]1C[C@@]2(C)[C@@H](C[C@@H](O)[C@H]3[C@@]4(C)CC[C@@H](O)[C@@H](C)[C@@H]4CC[C@@]32C)/C1=C(\CCC=C(C)C)C(=O)O [Fusidic acid (sodium salt)] ?
Found: 0.9484

Lookup: Complete Media for CC(C)OC(=O)[C@H](C)N[P@](=O)(OC[C@H]1O[C@@H](n2ccc(=O)[nH]c2=O)[C@](C)(F)[C@@H]1O)Oc1ccccc1 ?
Found: 0.9628

Continuing:
Lookup: Complete Media for CC(O)C(=O)O.CCOc1ccc2nc3cc(N)ccc3c(N)c2c1.O [Ethacridine (lactate monohydrate)] ?
Found: 0.1706

Lookup: Complete Media for Cc1ccc([C@@H]2O[C@H](CO)[C@@H](O)[C@H](O)[C@H]2O)cc1Cc1ccc(-c2ccc(F)cc2)s1 ?
Found: 1.104

Lookup: Complete Media for CC(C)(C)CC(=O)OCC(=O)[C@@]1(O)CC[C@H]2[C@@H]3CCC4=CC(=O)C=C[C@]4(C)[C@H]3[C@@H](O)C[C@@]21C [Prednisolone Tebutate] ?
Found: 0.7398

Lookup: Complete Media for Cc1ccc(-c2ncc(Cl)cc2-c2ccc(S(C)(=O)=O)cc2)cn1 ?
Found: 1.49

----------
System: NCI-H292 lung cancer cells
ASSAY SUMMARY: FDA drug screening, complete media vs cholesterol-free media without statin (TABLE 1)
Assay type: cell-based, human
CONDITION CONTEXT: NCI-H292 cells, FDA drug library screen, cholesterol-free media without statin
Structures can show the parent of a compound that is named as a salt.
TEST READOUT: Cholesterol-free

Worked examples, 2 molecules total:
Lookup: Cholesterol-free for C[C@@H](O)[C@H]1C(=O)N2C(C(=O)[O-])=C(SC3Cn4cnc[n+]4C3)[C@H](C)[C@H]12 (stereo partly drawn) [Biapenem] ?
Found: 0.9795

Lookup: Cholesterol-free for CCC(=O)Oc1ccc2c(c1)CC[C@@H]1[C@@H]2CC[C@]2(C)[C@@H](OC(=O)CC)CC[C@@H]12 [Estradiol dipropionate] ?
Found: 0.9963

Continuing:
Lookup: Cholesterol-free for COc1ccc(CN2CCN(C(c3ccc(F)cc3)c3ccc(F)cc3)CC2)c(OC)c1OC [Lomerizine dihydrochloride] ?
Found: 1.023

----------
Test system: NCI-H292 lung cancer cells
ASSAY SUMMARY: FDA drug screening, complete media vs cholesterol-free media without statin (TABLE 1)
Type: cell-based, human
CONDITION CONTEXT: NCI-H292 cells, cholesterol-free media without statin, FDA drug library screen
Where a name gives a salt, the structure may show the parent alone.
// assign True if Cholesterol-free falls strictly below 1, else False (ties count as False)

Field: example entries. Status: answers known.
Lookup: Does this compound meet the criterion Cholesterol-free < 1? COS(=O)(=O)[O-].C[N+]1(C)CCC(=C(c2ccccc2)c2ccccc2)CC1 [Diphenmanil (methylsulfate)]
Found: True

Lookup: Does this compound meet the criterion Cholesterol-free < 1? Cc1c(C)c2c(c(C)c1O)CCC(C)(COc1ccc(CC3SC(=O)NC3=O)cc1)O2 (stereo not shown)
Found: True

Lookup: Does this compound meet the criterion Cholesterol-free < 1? C#C[C@]1(O)CC[C@H]2[C@@H]3CCC4=CCCC[C@@H]4[C@H]3C(=C)C[C@@]21CC
Found: True

Continuing:
Lookup: Does this compound meet the criterion Cholesterol-free < 1? O=C(COc1ccc(Cl)cc1)N1CCN(Cc2ccc3c(c2)OCO3)CC1 [Fipexide]
Found: False

Lookup: Does this compound meet the criterion Cholesterol-free < 1? C[C@@H]1[C@H](O)[C@@H](C)/C=C/C=C/C=C/C=C/C=C/C=C/C=C/[C@H](O[C@@H]2O[C@H](C)[C@@H](O)[C@H](N)[C@@H]2O)C[C@@H]2O[C@](O)(C[C@@H](O)C[C@@H](O)[C@H](O)CC[C@@H](O)C[C@@H](O)CC(=O)O[C@H]1C)C[C@H](O)[C@H]2C(=O)O
Found: False

Lookup: Does this compound meet the criterion Cholesterol-free < 1? O.O.O.O.O=P([O-])(O)C(Cl)(Cl)P(=O)([O-])O.[Na+].[Na+] [Clodronate (disodium tetrahydrate)]
Found: False

Lookup: Does this compound meet the criterion Cholesterol-free < 1? O=C(Cn1ccnc1[N+](=O)[O-])NCc1ccccc1
Found: False

Lookup: Does this compound meet the criterion Cholesterol-free < 1? O=C1NC(=O)C(c2ccccc2)(c2ccccc2)N1
Found: True

Lookup: Does this compound meet the criterion Cholesterol-free < 1? CC(=O)Oc1cc2c(s1)CCN(C(C(=O)C1CC1)c1ccccc1F)C2 (stereo not shown) [Prasugrel (hydrochloride)]
Found: True

Lookup: Does this compound meet the criterion Cholesterol-free < 1? C[C@@H]1CC(=O)NN=C1c1ccc(NN=C(C#N)C#N)cc1
Found: False

Lookup: Does this compound meet the criterion Cholesterol-free < 1? C[C@@H](c1ncncc1F)[C@](O)(Cn1cncn1)c1ccc(F)cc1F
Found: True

Lookup: Does this compound meet the criterion Cholesterol-free < 1? CC[C@H]1OC(=O)[C@H](C)[C@@H](O[C@H]2C[C@@](C)(OC)[C@@H](O)[C@H](C)O2)[C@H](C)[C@@H](O[C@@H]2O[C@H](C)C[C@H](N(C)C)[C@H]2O)[C@](C)(O)C[C@@H](C)C(=O)[C@H](C)[C@H]2OC(=O)O[C@@]21C
Found: True

----------
Tested on: NCI-H292 lung cancer cells
ASSAY SUMMARY: FDA drug screening, complete media vs cholesterol-free media with simvastatin (TABLE 2)
Format: cell-based, human
CONDITION CONTEXT: NCI-H292 cells, FDA drug library screen, complete media
Where a name gives a salt, the structure may show the parent alone.
Hi, to clarify the labels: yes covers Complete Media from 1 upward, no covers anything below 1.

Field: example entries. Status: answers known.
Lookup: Does Complete Media meet or surpass 1 for CN[C@H]1CC[C@@H](c2ccc(Cl)c(Cl)c2)c2ccccc21 [Sertraline (hydrochloride)] ?
Found: yes

Lookup: Does Complete Media meet or surpass 1 for Cc1nnc(SCC2=C(C(=O)O)N3C(=O)[C@@H](NC(=O)Cn4cnnn4)[C@H]3SC2)s1 ?
Found: yes

Lookup: Does Complete Media meet or surpass 1 for CCC[C@H](NC(=O)[C@@H]1[C@H]2CCC[C@H]2CN1C(=O)[C@@H](NC(=O)[C@@H](NC(=O)c1cnccn1)C1CCCCC1)C(C)(C)C)C(=O)C(=O)NC1CC1 ?
Found: no

Lookup: Does Complete Media meet or surpass 1 for CCCCCC(=O)O[C@]1(C(C)=O)CC[C@H]2[C@@H]3CCC4=CC(=O)CC[C@]4(C)[C@H]3CC[C@@]21C [Hydroxyprogesterone caproate] ?
Found: no

Lookup: Does Complete Media meet or surpass 1 for COc1ccc2cc1Oc1ccc(cc1)C[C@H]1c3c(cc4c(c3Oc3cc5c(cc3OC)CCN(C)[C@@H]5C2)OCO4)CCN1C [cepharanthine, reference compound] ?
Found: yes

Lookup: Does Complete Media meet or surpass 1 for COC(=O)N[C@H](C(=O)N1CCC[C@H]1c1nc(-c2ccc(-c3ccc(-c4c[nH]c([C@@H]5CCCN5C(=O)[C@@H](NC(=O)OC)C(C)C)n4)cc3)cc2)c[nH]1)C(C)C ?
Found: yes

Lookup: Does Complete Media meet or surpass 1 for Nc1nc(=O)c2c([nH]1)NC[C@H](CNc1ccc(C(=O)N[C@@H](CCC(=O)[O-])C(=O)[O-])cc1)N2C=O.[Ca+2] ?
Found: yes

Lookup: Does Complete Media meet or surpass 1 for CCCC(=O)Nc1ccc(OCC(O)CNC(C)C)c(C(C)=O)c1 (stereo not shown) [Acebutolol (hydrochloride)] ?
Found: yes

Lookup: Does Complete Media meet or surpass 1 for COC(=O)CCc1ccc(OCC(O)CNC(C)C)cc1 (stereo not shown) [Esmolol (hydrochloride)] ?
Found: yes

Switching to the query record.
Lookup: Does Complete Media meet or surpass 1 for C=CCNc1nc(NCC=C)nc(N2CCN(C(c3ccc(F)cc3)c3ccc(F)cc3)CC2)n1 [Almitrine mesylate] ?
Found: no
